Parameter: phosphorylation enrichment. Scope: all listed entries.
Biological target: FGFR3 (UniProt P22607)
Sequence (P22607 whole entry, looked up): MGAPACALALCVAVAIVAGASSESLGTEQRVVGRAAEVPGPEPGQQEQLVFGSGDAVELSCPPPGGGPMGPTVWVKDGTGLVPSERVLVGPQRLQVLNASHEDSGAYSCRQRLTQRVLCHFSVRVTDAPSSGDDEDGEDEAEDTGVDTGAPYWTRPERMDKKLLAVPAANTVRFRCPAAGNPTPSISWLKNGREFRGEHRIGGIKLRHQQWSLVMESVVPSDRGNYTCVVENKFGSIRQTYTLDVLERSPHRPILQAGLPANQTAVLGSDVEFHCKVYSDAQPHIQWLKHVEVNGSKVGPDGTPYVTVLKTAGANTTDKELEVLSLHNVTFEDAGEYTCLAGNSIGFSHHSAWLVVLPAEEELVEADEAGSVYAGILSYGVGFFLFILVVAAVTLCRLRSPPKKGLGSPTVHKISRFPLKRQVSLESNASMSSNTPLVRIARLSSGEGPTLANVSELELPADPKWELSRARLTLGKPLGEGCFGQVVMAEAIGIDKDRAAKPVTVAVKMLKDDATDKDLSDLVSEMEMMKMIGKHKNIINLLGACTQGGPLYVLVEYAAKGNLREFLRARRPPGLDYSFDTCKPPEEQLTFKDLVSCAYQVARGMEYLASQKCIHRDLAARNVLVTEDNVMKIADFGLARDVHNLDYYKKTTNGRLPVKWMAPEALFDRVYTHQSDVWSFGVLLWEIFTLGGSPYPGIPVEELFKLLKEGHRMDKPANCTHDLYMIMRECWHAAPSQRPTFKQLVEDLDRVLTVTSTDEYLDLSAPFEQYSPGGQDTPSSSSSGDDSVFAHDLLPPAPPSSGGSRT
Assay: phosphorylation enrichment, bacterial display (enrichment ratio); higher = better substrate or ligand; peptides without Tyr show the background

# Biopolymer sequence, phosphorylation enrichment
data = [
    ("RSRQIYDAYIM [GRK3_Y109]", 0.8),
    ("VQQVIYATGAL [MYH7_Y422]", 0.798),
    ("LQFKNYQQLFD [MAN2A1_Y442]", 0.679),
    ("LRSELYFLIAR [PHIP_Y16]", 3.17),
    ("PEADKYRLPFA [FGG_Y300_T303P_YF]", 0.657),
    ("RGRSTYFWPRP [GAGE12J_Y9_YF]", 1.06),
    ("ADKAAYLQSLN [MYH2_Y389]", 0.572),
    ("KLMTEYKRRKQ [ARFGEF3_Y2029_K2031R]", 0.646),
]

* * *

Target: Grb2 SH2 (UniProt P62993)
Sequence (P62993 whole entry, looked up): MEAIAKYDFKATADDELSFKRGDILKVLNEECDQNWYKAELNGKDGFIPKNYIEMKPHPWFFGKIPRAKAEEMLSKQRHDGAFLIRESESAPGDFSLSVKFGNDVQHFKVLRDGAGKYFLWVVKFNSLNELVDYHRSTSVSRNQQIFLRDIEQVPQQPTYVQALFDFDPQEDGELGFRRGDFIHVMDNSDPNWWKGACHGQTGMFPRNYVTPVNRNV
Test: SH2 binding enrichment of the phosphorylated peptide, bacterial display (enrichment ratio); higher = better substrate or ligand; peptides without Tyr show the background
Parameter: SH2 binding enrichment. Scope: all listed entries.
Recorded metric: SH2 binding enrichment

# Biopolymer sequence, Recorded metric, Numeric value
data = [
    ("KVGPGYLGSRG [RET_Y826_G830R]", "SH2 binding enrichment", 1),
    ("KRAAIYNPVIF [RHO_Y301_S297R_YF]", "SH2 binding enrichment", 1.01),
    ("TFFQMYDKGLV [IARS2_Y231_YF]", "SH2 binding enrichment", 0.99),
    ("DRLASSLDKVR [KRT10_Y160_Y160S]", "SH2 binding enrichment", 0.974),
]

* * *

Molecular target: Jak2 (UniProt O60674)
Sequence (O60674 whole entry, looked up): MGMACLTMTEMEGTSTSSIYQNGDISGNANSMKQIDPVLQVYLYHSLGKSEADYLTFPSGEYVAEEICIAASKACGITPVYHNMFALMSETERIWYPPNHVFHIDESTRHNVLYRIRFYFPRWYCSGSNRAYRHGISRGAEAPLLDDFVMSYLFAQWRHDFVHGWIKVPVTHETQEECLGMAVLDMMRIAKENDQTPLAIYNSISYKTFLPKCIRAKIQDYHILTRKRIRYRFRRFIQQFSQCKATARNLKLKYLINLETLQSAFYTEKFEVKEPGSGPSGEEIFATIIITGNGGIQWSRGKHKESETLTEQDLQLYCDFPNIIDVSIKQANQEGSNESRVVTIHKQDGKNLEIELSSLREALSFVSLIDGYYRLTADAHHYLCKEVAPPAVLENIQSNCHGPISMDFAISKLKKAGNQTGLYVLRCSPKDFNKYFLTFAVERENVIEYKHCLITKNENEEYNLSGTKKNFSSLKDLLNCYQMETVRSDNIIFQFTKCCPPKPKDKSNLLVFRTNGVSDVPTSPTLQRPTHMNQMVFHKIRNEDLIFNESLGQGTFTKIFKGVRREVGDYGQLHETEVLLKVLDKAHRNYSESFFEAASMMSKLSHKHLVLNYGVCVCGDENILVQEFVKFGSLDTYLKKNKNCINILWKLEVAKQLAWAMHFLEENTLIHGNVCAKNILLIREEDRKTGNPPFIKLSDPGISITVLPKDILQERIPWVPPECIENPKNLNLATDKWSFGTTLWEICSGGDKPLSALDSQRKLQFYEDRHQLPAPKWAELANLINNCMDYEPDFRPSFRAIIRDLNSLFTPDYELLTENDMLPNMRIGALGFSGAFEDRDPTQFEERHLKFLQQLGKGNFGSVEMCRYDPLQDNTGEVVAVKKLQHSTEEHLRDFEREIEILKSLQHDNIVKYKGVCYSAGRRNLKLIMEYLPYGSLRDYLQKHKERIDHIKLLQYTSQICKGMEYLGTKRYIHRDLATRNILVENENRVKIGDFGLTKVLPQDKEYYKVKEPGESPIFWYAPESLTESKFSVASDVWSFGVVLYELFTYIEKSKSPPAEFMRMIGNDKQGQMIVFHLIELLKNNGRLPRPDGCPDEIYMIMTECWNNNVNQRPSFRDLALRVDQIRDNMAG
Assay: phosphorylation enrichment, bacterial display (enrichment ratio); higher = better substrate or ligand; peptides without Tyr show the background
Parameter: phosphorylation enrichment. Scope: all listed entries.
Recorded metric: phosphorylation enrichment

# Biopolymer sequence, Result
rows = [
    ("YSQNICIQNRN [PKP2_Y631_Y631C]", 0.777),
    ("MLEVPYVDRNS [F10_Y384]", 0.789),
    ("NGSKAYAFVHF [PABPC5_Y147_G146A_YF]", 0.796),
    ("VDESLYKTHPQ [HK1_Y417_G414E]", 0.811),
]

* * *

System: AncSZ
Experiment: phosphorylation enrichment, bacterial display (enrichment ratio); higher = better substrate or ligand; peptides without Tyr show the background
Parameter: phosphorylation enrichment. Scope: all listed entries.
Recorded metric: phosphorylation enrichment

# Biopolymer sequence, Target or test system, Numeric value
rows = [
    ("MKVPVYETPAG [PGM5_Y358]", "AncSZ", 1.57),
    ("IAINKYGVSLI [MYO7A_Y2136]", "AncSZ", 0.837),
    ("ALAPKYHGGGG [HBB_Y146_H144P]", "AncSZ", 0.314),
    ("ATQDDYVLEVR [PTPRZ1_Y2179]", "AncSZ", 1.45),
    ("LIHLHYIRRDF [BBS4_Y43_K46R_YF]", "AncSZ", 1.1),
    ("FNDSAYNQQLI [ZPLD1_Y198_T197A_YF]", "AncSZ", 0.641),
    ("GTATTYLCGVK [ALPL_Y117_A116T]", "AncSZ", 0.914),
    ("YKRAVYCIIGR [NUP93_Y391]", "AncSZ", 0.746),
    ("IEDPFYGNDSD [ACP1_Y133_YF]", "AncSZ", 1.51),
    ("FSCLPYGRLAY [SLC52A2_Y305]", "AncSZ", 1.01),
    ("NFYEYYVDDPL [GCHFR_Y48_P53L]", "AncSZ", 2.81),
    ("AFSLKYDQQTQ [SYTL4_Y366_E367D]", "AncSZ", 1.03),
    ("VLNDAYENLTR [SYNE2_Y3255]", "AncSZ", 1.08),
    ("RKLASYQSCLL [DHX37_Y1080_R1081Q]", "AncSZ", 1.01),
    ("ILGRFYETSSI [PAX2_Y73_G76S_YF]", "AncSZ", 0.66),
    ("VNYGAYINNFK [GLB1_Y488_D491N]", "AncSZ", 0.677),
    ("GLAKEYIDPET [CSNK1G2_Y195]", "AncSZ", 0.743),
    ("LITTLYSGFLG [KCNQ1_Y267_I268S]", "AncSZ", 1.38),
]

* * *

Molecular target: Hck (UniProt P08631)
Sequence (P08631 whole entry, looked up): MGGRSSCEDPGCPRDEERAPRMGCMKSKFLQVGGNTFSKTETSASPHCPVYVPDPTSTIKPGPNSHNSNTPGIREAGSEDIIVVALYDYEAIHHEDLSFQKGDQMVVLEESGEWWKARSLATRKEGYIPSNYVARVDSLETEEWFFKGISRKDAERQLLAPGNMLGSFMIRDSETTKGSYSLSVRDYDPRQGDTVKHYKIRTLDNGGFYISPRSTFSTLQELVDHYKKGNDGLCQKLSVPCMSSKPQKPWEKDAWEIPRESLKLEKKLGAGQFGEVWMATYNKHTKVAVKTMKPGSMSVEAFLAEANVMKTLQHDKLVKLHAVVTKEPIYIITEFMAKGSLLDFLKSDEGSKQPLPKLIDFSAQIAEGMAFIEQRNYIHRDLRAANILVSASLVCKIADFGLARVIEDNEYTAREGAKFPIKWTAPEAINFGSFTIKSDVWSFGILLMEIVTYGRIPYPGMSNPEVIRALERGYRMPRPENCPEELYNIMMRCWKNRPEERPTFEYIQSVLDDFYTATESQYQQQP
Test: phosphorylation enrichment, bacterial display (enrichment ratio); higher = better substrate or ligand; peptides without Tyr show the background
phosphorylation enrichment below 0.6 gives not fulfilled; phosphorylation enrichment at or above it gives fulfilled.

# Biopolymer sequence, Target or test system, Label
data = [
    ("AIDVGYRLIDC [AKR1B1_Y40_H42L]", "Hck (UniProt P08631)", "not fulfilled"),
    ("SEKISYVYMKR [SSX7_Y48_L43S]", "Hck (UniProt P08631)", "not fulfilled"),
    ("DSEIRYLSADS [TTF1_Y476]", "Hck (UniProt P08631)", "not fulfilled"),
    ("SRIWVYNHFRC [BRCA2_Y2621_W2626C_YF]", "Hck (UniProt P08631)", "not fulfilled"),
    ("ISDDNYGRIRL [ARCN1_Y310_K309N]", "Hck (UniProt P08631)", "fulfilled"),
    ("AGDGRYEVLFL [SEMA3F_Y478_A474G]", "Hck (UniProt P08631)", "fulfilled"),
    ("MFKPMYALFRT [HUWE1_Y4078_N4075K]", "Hck (UniProt P08631)", "fulfilled"),
    ("DLDTEYGSGYP [RNASEH2A_Y206_D205E]", "Hck (UniProt P08631)", "not fulfilled"),
    ("MHDKEYFSVHN [MET_Y1234_Y1230H_YF]", "Hck (UniProt P08631)", "not fulfilled"),
    ("AHPIIYEIIEA [PYKtide_E_2014]", "Hck (UniProt P08631)", "fulfilled"),
    ("VIEFSYTSADG [DHCR7_Y382_C380Y_YF]", "Hck (UniProt P08631)", "not fulfilled"),
    ("ETDSEYVKLAK [C7orf57_Y70]", "Hck (UniProt P08631)", "not fulfilled"),
    ("NTQRPYYKGGG [TYROBP_Y111]", "Hck (UniProt P08631)", "not fulfilled"),
    ("EKSREYHRLFE [PIK3R1_Y463_D464H_YF]", "Hck (UniProt P08631)", "not fulfilled"),
    ("YQASYYRRGDR [LTK_Y677_R673Q]", "Hck (UniProt P08631)", "not fulfilled"),
    ("PSNTDYPGPHS [TP63_Y171]", "Hck (UniProt P08631)", "not fulfilled"),
    ("IYKAAYFGVYD [SLC25A4_Y191_R188K]", "Hck (UniProt P08631)", "fulfilled"),
    ("AESPEYVHMYT [FAM111A_Y511]", "Hck (UniProt P08631)", "not fulfilled"),
    ("YISLIYTNYEV [GSTP1_Y109_A114V]", "Hck (UniProt P08631)", "fulfilled"),
    ("TAALWYIYLHT [ENG_Y612_S615L]", "Hck (UniProt P08631)", "not fulfilled"),
]

* * *

Parameter: phosphorylation enrichment. Scope: all listed entries.
Biological target: FGFR3 (UniProt P22607)
Test: phosphorylation enrichment, bacterial display (enrichment ratio); higher = better substrate or ligand; peptides without Tyr show the background

# Biopolymer sequence, Target or test system, phosphorylation enrichment
data = [
    ("NFATLHLKIYH [PDE6B_Y219_Y219H]", "FGFR3 (UniProt P22607)", 0.755),
    ("VTGWGYRKLRD [F11_Y521]", "FGFR3 (UniProt P22607)", 0.419),
    ("KAESWYQTKFE [KRT75_Y342_E337K_YF]", "FGFR3 (UniProt P22607)", 0.538),
    ("TGFRPYVCPFD [YY1_Y383_D380Y_YF]", "FGFR3 (UniProt P22607)", 1.66),
    ("TVQIMYGCDVG [HLA-A_Y123_I119V]", "FGFR3 (UniProt P22607)", 0.917),
    ("NGSKAYAFVHF [PABPC5_Y147_G146A_YF]", "FGFR3 (UniProt P22607)", 0.763),
    ("PVGVLYKVKVF [PTS_Y128_YF]", "FGFR3 (UniProt P22607)", 1.4),
    ("PSVVAYPKRSQ [MARK3_Y432]", "FGFR3 (UniProt P22607)", 0.949),
    ("VRFTEYETQVK [TARDBP_Y155]", "FGFR3 (UniProt P22607)", 0.542),
    ("SELVCYDARVH [MET_Y971_R970C]", "FGFR3 (UniProt P22607)", 0.679),
    ("IKGIRYLHHQG [GUCY2D_Y656_R660Q]", "FGFR3 (UniProt P22607)", 0.45),
    ("RSPLRYTSILT [OR51B6_Y130]", "FGFR3 (UniProt P22607)", 0.431),
    ("SVTCTYSPAFN [TP53_Y126_L130F]", "FGFR3 (UniProt P22607)", 0.897),
    ("INITIYGKTFR [EFHC1_Y177]", "FGFR3 (UniProt P22607)", 0.781),
    ("MMVGAYSSLEG [ECPAS_Y470_T472S]", "FGFR3 (UniProt P22607)", 0.515),
    ("TEDELYQLFLQ [RASGRP2_Y378_S381F]", "FGFR3 (UniProt P22607)", 1.9),
    ("AGQKDYDRLRP [RAC3_Y64_E62K]", "FGFR3 (UniProt P22607)", 0.572),
    ("NPQKSYFICLF [WAS_Y83_R86C_YF]", "FGFR3 (UniProt P22607)", 0.757),
    ("KWHREYNSKFV [RICTOR_Y835_YF]", "FGFR3 (UniProt P22607)", 0.49),
    ("DVFRQYASLRG [GANAB_Y379_T383R]", "FGFR3 (UniProt P22607)", 0.41),
    ("SEKISYVYMKR [SSX7_Y48_L43S]", "FGFR3 (UniProt P22607)", 0.748),
    ("IDDNQYAYLKA [HNF4A_Y286_E285Q]", "FGFR3 (UniProt P22607)", 1.69),
    ("SKNSKYNAGST [PSEN1_Y315_E318G]", "FGFR3 (UniProt P22607)", 0.439),
    ("RNGDRYFKGIV [DCX_Y64]", "FGFR3 (UniProt P22607)", 0.483),
    ("FDCGMYSHLQG [LGR4_Y848_YF]", "FGFR3 (UniProt P22607)", 1),
    ("YLGRDYLETLM [DUS3L_Y610]", "FGFR3 (UniProt P22607)", 2.29),
    ("LITTLYSGFLG [KCNQ1_Y267_I268S]", "FGFR3 (UniProt P22607)", 0.755),
    ("NYADPYRQLPY [CTNND2_Y503_Q507P]", "FGFR3 (UniProt P22607)", 2.33),
    ("HEHVGYTTLNR [CHN1_Y148_Y143H]", "FGFR3 (UniProt P22607)", 0.744),
    ("GRTNIYKNKKD [SLC26A3_Y520]", "FGFR3 (UniProt P22607)", 0.475),
    ("YSKTQYNQVPS [CXADR_Y318]", "FGFR3 (UniProt P22607)", 0.429),
    ("CTLLPYFSARV [DGKE_Y269_YF]", "FGFR3 (UniProt P22607)", 0.736),
    ("TVLEPYTDPYY [ZC3H18_Y367_A368T]", "FGFR3 (UniProt P22607)", 0.797),
    ("MYDKEYYSVHN [MET_Y1234]", "FGFR3 (UniProt P22607)", 4.25),
    ("EEGNPSYSSAR [MCCC2_Y520_Y520S]", "FGFR3 (UniProt P22607)", 0.554),
    ("RLLRGHDQSAY [HLA-C_Y137_Y137H]", "FGFR3 (UniProt P22607)", 0.455),
    ("EFITRYIDSLK [PSMA7_Y110_A112D_YF]", "FGFR3 (UniProt P22607)", 0.639),
    ("ADARMYGVLLW [PLP1_Y207_P211L]", "FGFR3 (UniProt P22607)", 0.751),
    ("RKETFYTLSCR [GUCY2C_Y681]", "FGFR3 (UniProt P22607)", 1.39),
    ("FTGVEYSSCDT [EPHA3_Y937]", "FGFR3 (UniProt P22607)", 0.721),
    ("PFTRNYYVQAV [CYBA_Y87_R90Q]", "FGFR3 (UniProt P22607)", 1.9),
    ("MTRDIYRASFF [ALK_Y1278_A1274T_YF]", "FGFR3 (UniProt P22607)", 0.677),
    ("VAVTKYCKEEL [ATP7B_Y1078]", "FGFR3 (UniProt P22607)", 0.776),
    ("LTGIAYSLPHW [SLC22A14_Y291]", "FGFR3 (UniProt P22607)", 0.956),
    ("RASSVFTRSTG [CCR5_Y339_Y339F]", "FGFR3 (UniProt P22607)", 0.797),
    ("LRVHSYKSMQP [DRC7_Y516]", "FGFR3 (UniProt P22607)", 0.671),
    ("LDVDVYGPSVP [NUBPL_Y109]", "FGFR3 (UniProt P22607)", 0.72),
]
